// reported cytotoxicity at 70.5 h for each item listed
# methodDescription: Human HepG2 cell viability assay in 384 well format
# Format: toxicity, cell-based
# Design: dose 125 nL, time 70.5 hour; concentration not given beside the values
# measurementParameters: HepG2 cells, read-out: Inhibition
Give your result in % as a bare value.

Before answering, review these 4 worked examples.
CN(CCO)Cc1nnc(C2CCN(C(=O)c3cccnc3)CC2)n1C; -10.6
CCn1cc(CN2CCCN(C3Cc4ccccc4C3)CC2)cn1; -7.57
CC(C)NC(=O)[C@H](C)NC(=O)N1CCN(c2ccc(Cl)cc2)CC1; -15.6
COc1cc(C2Nc3cc(Cl)ccc3C3=NCCN32)ccc1O (stereo unspecified); -8.38

Query: I am curious: what cytotoxicity at 70.5 h value has been reported for Cc1nn(C)c2cn(C(C)C(=O)NCc3cccc(F)c3)nc12 (stereo unspecified) ?
Result: -3

Query: Another compound: "CS(=O)(=O)CCN1CC(c2ccccc2)(c2ccccc2)CCC1=O"
Result: 22.9

Query: Another compound: "O=C(c1ccc[nH]1)N1CCc2c(cccc2S(=O)(=O)N2CCOCC2)C1"
Result: 29.8

Query: Another compound: "Cc1nc(C)c(C)c(N2C[C@@H](CN3CCCN(C)CC3)[C@@H](CO)C2)n1"
Result: -1.83

Query: Another compound: CC(CCn1cccn1)Nc1ccc(-c2nccn2C)nn1 (stereo unspecified)
Result: 22.7

Query: Another compound: "COC[C@@]12CC[C@@H](N3CCOCC3)C[C@H]1CCN(c1cnccn1)C2"
Result: 13.9

Query: Another compound: "CCS(=O)(=O)N1C[C@@H](c2nnc(C)o2)C[C@H]2OCC[C@H]21"
Result: -9.81
